Cited source: patent US9340555B2

# target system: VEGFR2 (Homo sapiens (Human))
# Sequence (P35968 20-1356): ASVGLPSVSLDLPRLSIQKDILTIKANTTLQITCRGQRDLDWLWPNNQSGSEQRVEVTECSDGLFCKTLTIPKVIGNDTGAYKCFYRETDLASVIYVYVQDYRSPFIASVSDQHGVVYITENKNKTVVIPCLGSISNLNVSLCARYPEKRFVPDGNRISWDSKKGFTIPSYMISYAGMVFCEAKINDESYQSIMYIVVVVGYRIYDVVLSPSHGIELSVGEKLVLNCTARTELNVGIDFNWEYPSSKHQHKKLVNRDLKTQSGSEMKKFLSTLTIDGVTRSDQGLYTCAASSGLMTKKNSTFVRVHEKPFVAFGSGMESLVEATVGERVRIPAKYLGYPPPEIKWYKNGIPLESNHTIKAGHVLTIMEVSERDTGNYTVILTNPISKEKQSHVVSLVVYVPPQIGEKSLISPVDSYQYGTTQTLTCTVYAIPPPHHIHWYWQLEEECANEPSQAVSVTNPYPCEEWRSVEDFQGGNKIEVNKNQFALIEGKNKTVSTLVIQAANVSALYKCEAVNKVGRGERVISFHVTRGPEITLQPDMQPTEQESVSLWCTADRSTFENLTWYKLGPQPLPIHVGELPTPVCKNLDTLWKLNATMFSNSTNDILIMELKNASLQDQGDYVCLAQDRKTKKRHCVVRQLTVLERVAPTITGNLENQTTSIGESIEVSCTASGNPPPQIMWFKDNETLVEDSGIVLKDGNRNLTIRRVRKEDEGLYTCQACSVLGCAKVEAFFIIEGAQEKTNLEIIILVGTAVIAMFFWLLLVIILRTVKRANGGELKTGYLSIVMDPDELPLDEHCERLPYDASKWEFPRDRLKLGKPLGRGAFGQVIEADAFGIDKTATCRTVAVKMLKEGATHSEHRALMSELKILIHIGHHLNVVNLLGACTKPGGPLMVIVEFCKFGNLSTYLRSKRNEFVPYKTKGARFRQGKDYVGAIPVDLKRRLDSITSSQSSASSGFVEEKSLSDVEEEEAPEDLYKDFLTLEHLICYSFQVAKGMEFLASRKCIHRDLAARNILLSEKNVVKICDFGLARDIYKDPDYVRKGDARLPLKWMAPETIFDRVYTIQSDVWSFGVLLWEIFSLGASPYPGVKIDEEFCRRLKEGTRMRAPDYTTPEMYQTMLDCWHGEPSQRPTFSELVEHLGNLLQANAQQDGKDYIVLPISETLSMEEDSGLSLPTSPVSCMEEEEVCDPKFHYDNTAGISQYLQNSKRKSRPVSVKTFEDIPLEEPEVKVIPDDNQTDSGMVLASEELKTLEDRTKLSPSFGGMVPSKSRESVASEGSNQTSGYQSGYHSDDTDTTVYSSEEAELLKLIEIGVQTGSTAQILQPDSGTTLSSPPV
# test summary: VEGF Stimulated Ca++ Signal In Vitro (Cellular VEGFR2, FLIPR)
# condition summary: HUVEC, VEGF stimulation (5 ng/mL), intracellular calcium
measurement name: IC50 (nM)

compound: Cc1ccc(F)c(NC(=O)Nc2ccc(Oc3ccnc4cc(C(=O)NCCCN5CCOC(CO)C5)sc34)cc2F)c1 (stereo not shown)
IC50, nM: 1
//
compound: Cc1ccc(F)c(NC(=O)Nc2ccc(Oc3ccnc4cc(C(=O)NCCCC(=O)O)sc34)cc2)c1
IC50, nM: 2
//
compound: COC(=O)CC[C@H](NC(=O)c1cc2nccc(Oc3ccc(NC(=O)Nc4cc(C)ccc4F)c(F)c3)c2s1)C(=O)OC
IC50, nM: 4
//
compound: Cc1ccc(F)c(NC(=O)Nc2ccc(Oc3ccnc4cc(C(=O)NCCCN5CCOCC5)sc34)cc2F)c1
IC50, nM: 7

A: Cc1ccc(F)c(NC(=O)Nc2ccc(Oc3ccnc4cc(C(=O)NCCCN5CCCCC5)sc34)cc2)c1
B: Cc1ccc(F)c(NC(=O)Nc2ccc(Oc3ccnc4cc(C(=O)NCCCN5CCN(C)CC5)sc34)cc2)c1
C: CCOC(=O)N1CCN(CCNC(=O)c2cc3nccc(Oc4ccc(NC(=O)Nc5cc(C)ccc5F)c(F)c4)c3s2)CC1
Ask: Order the records so the highest IC50 appears first and the lowest last. As an answer, provide the labels arranged in the order called for.
Reply: A, C, B
